Reported Ki (M) Bcl-xL is given for each of the following substances.
target: Bcl-xL (Homo sapiens); construct: c-myc; experiment: Competition fluorescence polarization (anisotropy) with fluoresceinated BIM; format: binding; settings: competition FP source data; replicate 2
Sequence (Q07817 whole entry): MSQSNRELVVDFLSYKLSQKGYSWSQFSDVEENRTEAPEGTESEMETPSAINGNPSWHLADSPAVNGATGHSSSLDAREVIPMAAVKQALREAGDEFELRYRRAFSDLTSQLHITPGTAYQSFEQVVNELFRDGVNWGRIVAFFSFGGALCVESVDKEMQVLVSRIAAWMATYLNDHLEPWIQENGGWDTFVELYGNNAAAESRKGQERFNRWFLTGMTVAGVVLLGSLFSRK

- SUBSTANCE: "Ac-QWVREIAAGLRRAADDVNAQVER-NH2 [FS2]"
  Ki (M) Bcl-xL: "1e-05"
- SUBSTANCE: "Ac-QWAREIGAGLRRAADDVNAQVER-NH2 [Puma_N/FS2_C]"
  Ki (M) Bcl-xL: "1.31e-09"
- SUBSTANCE: "Ac-QWVREIAAGLRLAADNVNAQLER-NH2 [FS1]"
  Ki (M) Bcl-xL: "2.84e-06"
- SUBSTANCE: "Ac-QWIREIAAGLRRFADILNAQVER-NH2 [FS3]"
  Ki (M) Bcl-xL: "4.23e-07"
